- Protocol description: IND concentrations in maternal uterus and fetus by LC-MS/MS
- Assay type: in vivo, pregnant CD1 mice
- Condition notes: female, CD1, mouse, uterus, intravenous, 1 mg/kg
Outcome measure: concentration at 4 h (ng/g)
Answers are plain numbers, in ng/g.

Input line: Provide only the value of recorded concentration at 4 h for COc1ccc2c(c1)c(CC(=O)O)c(C)n2C(=O)c1ccc(Cl)cc1 [IND, indomethacin]
Output line: 965

====

- Protocol description: Indomethacin levels in uterus, placenta and fetus after IND or LIP-IND (Example 1)
- Format: in vivo, pregnant mouse
- Condition notes: female, mouse, fetus; four hours following administration, mean ± sem
Outcome measure: concentration at 4 h (ng/g)
Answers are plain numbers, in ng/g.

Input line: Provide only the value of recorded concentration at 4 h for COc1ccc2c(c1)c(CC(=O)O)c(C)n2C(=O)c1ccc(Cl)cc1 [IND, indomethacin]
Output line: 81.3

Data origin: patent US10736880B2
